Cited source: patent US20130330346A1

Biological target: T1, Human CXCR2 (human, UniProt P25025 1-360)
T1 sequence: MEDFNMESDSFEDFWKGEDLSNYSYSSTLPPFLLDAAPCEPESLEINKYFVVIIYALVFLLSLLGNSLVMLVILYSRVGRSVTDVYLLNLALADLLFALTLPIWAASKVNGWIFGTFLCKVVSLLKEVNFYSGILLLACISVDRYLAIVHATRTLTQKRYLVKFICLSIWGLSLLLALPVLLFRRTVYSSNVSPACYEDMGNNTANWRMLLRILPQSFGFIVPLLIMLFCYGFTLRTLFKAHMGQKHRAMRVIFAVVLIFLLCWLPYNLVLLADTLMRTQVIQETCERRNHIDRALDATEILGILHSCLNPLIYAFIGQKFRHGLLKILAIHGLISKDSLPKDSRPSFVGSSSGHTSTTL
Assay: cell-based or functional assay
# binarize [35S]GTPγS IC50 (GRO-α): threshold 20 nM inclusive, high side MET, low side NOT MET

BINDER	CLASS_NAME
97A9 (VHH, Tested as periplasmic extract (pAX50) and as purified His6-tagged protein (pAX100); also called 097A09; not shown: C-terminal c-myc tag and His6 tag coded by the vector) VHH: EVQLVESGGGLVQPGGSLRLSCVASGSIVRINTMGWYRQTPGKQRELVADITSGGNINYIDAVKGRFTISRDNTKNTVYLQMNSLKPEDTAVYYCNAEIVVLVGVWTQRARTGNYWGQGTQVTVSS	MET
163E3 (VHH, Tested as periplasmic extract (pAX50) and as purified His6-tagged protein (pAX100); also called 163E03; not shown: C-terminal c-myc tag and His6 tag coded by the vector) VHH: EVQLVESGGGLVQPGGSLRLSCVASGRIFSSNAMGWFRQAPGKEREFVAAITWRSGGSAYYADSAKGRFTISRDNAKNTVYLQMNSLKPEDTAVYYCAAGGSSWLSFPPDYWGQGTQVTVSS	MET
163D2 (VHH, Tested as periplasmic extract (pAX50) and as purified His6-tagged protein (pAX100); also called 163D02; not shown: C-terminal c-myc tag and His6 tag coded by the vector) VHH: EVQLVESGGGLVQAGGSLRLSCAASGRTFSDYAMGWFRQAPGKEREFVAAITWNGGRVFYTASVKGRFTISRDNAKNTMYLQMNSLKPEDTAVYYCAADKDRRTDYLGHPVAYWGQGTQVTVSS	MET
54B12 (VHH, Tested as periplasmic extract (pAX50) and as purified His6-tagged protein (pAX100); also called 054B12; not shown: C-terminal c-myc tag and His6 tag coded by the vector) VHH: EVQLVESGGGLVQAGGSLTLSCAVSGSTFRINTMGWYRRAPGKQRELVAARDRGGYINYVDSVKGRFTVSRDNAKPTMYLQMNSLKPEDTAVYYCHAGTQDRTGRNFDRWGQGTQVTVSS	NOT MET
2B2 (VHH, Tested as periplasmic extract (pAX50) and as purified His6-tagged protein (pAX100); also called 002B02; not shown: C-terminal c-myc tag and His6 tag coded by the vector) VHH: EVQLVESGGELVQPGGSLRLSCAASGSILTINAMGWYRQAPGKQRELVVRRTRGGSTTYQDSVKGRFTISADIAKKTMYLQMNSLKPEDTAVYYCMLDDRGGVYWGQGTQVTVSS	MET
127D1 (VHH, Tested as periplasmic extract (pAX50) and as purified His6-tagged protein (pAX100); also called 127D01; not shown: C-terminal c-myc tag and His6 tag coded by the vector) VHH: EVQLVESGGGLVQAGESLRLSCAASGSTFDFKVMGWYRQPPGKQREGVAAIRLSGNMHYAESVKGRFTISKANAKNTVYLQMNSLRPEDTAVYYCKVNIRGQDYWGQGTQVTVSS	NOT MET
